# target_system: T1, human CD8 (captured on the Octet biosensor) (human, UniProt P01732 22-182, limits assumed)
# T1 construct: Construct not described; also called recombinant human CD8a
# T1 sequence (P01732 22-182 limits assumed): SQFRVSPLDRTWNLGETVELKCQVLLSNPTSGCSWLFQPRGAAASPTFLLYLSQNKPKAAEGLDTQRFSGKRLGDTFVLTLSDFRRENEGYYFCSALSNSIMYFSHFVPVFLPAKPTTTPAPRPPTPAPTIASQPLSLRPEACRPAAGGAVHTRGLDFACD
# experiment_description: Octet (BLI); human CD8 captured, dipped into multiple concentrations of the one-arm mAb
parameter: koff (s⁻¹)
Write down the numeric answer in s⁻¹ and omit the unit.

Use these answered entries as a reference point.
binder	u	koff
XENP26231 (antibody, V domains shown, also called OKT8_H2.154_L1.103 one-arm mAb) VH: QVQLVQSGAEVKKPGASVKVSCKASGFNIKDTYIHWVRQAPGKGLEWMGRIDPDNGETLYASKFQGRVTITADTSINTAYMELSRLRSDDTAVYYCGRGYGKYVFDHWGQGTTVTVSS VL: AIKMTQSPSSLSASVGDRVTITCRTSRSISKYLAWYQEKPGKTNKLLIYSGSTLQSGIPSRFSGSGSGTDFTLTISSLQPEDFATYYCQQHNENPLTFGAGTKLEIK	s⁻¹	0.0226
XENP26243 (antibody, V domains shown, also called OKT8_H2.166_L1.103 one-arm mAb) VH: QVQLVQSGAEVKKPGASVKVSCKASGFNIKDTYIHWVRQAPGKGLEWMGRIDPDNDETLYASKFQGRVTMTADTSINTAYMELSRLRSDDTAVYYCGRGWGYYVFDHWGQGTTVTVSS VL: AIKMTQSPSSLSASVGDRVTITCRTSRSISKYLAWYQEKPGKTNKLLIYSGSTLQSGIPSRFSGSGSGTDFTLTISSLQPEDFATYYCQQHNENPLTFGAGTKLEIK	s⁻¹	0.00196

Short answer for XENP26235 (antibody, V domains shown, also called OKT8_H2.158_L1.103 one-arm mAb) VH: QVQLVQSGAEVKKPGASVKVSCKASGFNIKDTYIHWVRQAPGKGLEWMGRIDPDNGETLYASKFQGRVTMTADTSINTAYMELSRLRSDDTAVYYCGRGYGYYYFDHWGQGTTVTVSS VL: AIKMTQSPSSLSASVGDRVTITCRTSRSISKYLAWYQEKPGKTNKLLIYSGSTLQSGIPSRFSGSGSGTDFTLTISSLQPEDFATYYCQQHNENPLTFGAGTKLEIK : koff was 0.000992
